Source: PubChem BioAssay AID1159580

test: chemical genetic growth profiling, strain panel (AID 1159580);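 further: tested at 20 µM; growth read once vehicle control cultures reached saturation at 30 °C; 1 = growth at the plate median or of vehicle wells; lower values mean less growth of the strain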; settings: S. cerevisiae deletion strains, growth OD, locus YGL240W, strain doc1, active compounds read low
About 2,000 (36%) of roughly 5,500 compounds were called active. Another 18% or so got no clear call; they are omitted. Some of the results follow.
readout-type: normalized growth
Give the value as a plain number.

// known answers, use as guide
CC(C)c1c(O)ccc2c1CCC1C(C)(C)CCC[C@]21C (some centres not stated)	0.822
CC(=O)O[C@]1(C(C)=O)CCC2C3C=C(Cl)C4=CC(=O)[C@@H]5C[C@@H]5[C@]4(C)C3CC[C@@]21C (some centres not stated)	1.02
CC1(C)C2CC(=O)[C@]3(C)C(CC[C@@]4(C)[C@H](c5ccoc5)OC(=O)[C@H]5O[C@]543)[C@@]2(C)C(=O)C[C@H]1O (some centres not stated)	1.03
CO[C@@]1(NC(=O)C(C(=O)O)c2ccc(O)cc2)C(=O)N2C(C(=O)O)=C(CSc3nnnn3C)CO[C@@H]21 (some centres not stated)	0.987
C[C@@H]([C@H](O)c1ccccc1)N(C)C	1.01
C[C@H]1O[C@H](OC2[C@@H](O)[C@@H](O)C(O)[C@H](O)[C@H]2O)[C@@H](N)C[C@@H]1N=C(N)C(=O)O (some centres not stated)	1.01
CC1(C)C(=O)C=C[C@@]2(C)C1C=C[C@]1(C)C2CC[C@@]2(C)[C@H](c3ccoc3)OC(=O)C3OC321 (some centres not stated)	1.02
O=C(O[C@@H]1Cc2c(O)cc(O)cc2O[C@@H]1c1cc(O)c(=O)c2c(O)c(O)cc([C@H]3Oc4cc(O)cc(O)c4C[C@H]3O)c2c1)c1cc(O)c(O)c(O)c1	0.81

Name the recorded normalized growth for COc1ccc(-c2oc3cc(O[C@H]4O[C@H](CO)[C@@H](O)[C@H](O)[C@H]4O)c(OC)c(O)c3c(=O)c2OC)cc1O .
1.01

Could you do the same for CNC(C)C(O)c1ccccc1 (configuration not stated) , please?
1.04

Could you do the same for Cc1cc(OC(=O)c2c(C)cc(O)cc2O)cc(O)c1C(=O)O , please?
0.957

###

assay: chemical genetic growth profiling, strain panel (AID 1159580);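 further: tested at 20 µM; growth read once vehicle control cultures reached saturation at 30 °C; 1 = growth at the plate median or of vehicle wells; lower values mean less growth of the strain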; conditions: S. cerevisiae deletion strains, growth OD, locus YPL078C, strain atp4
Screen size: about 5,500 compounds; about 2,000 (36%) were called active. Another 18% or so got no clear call; they are omitted. Cut-off read from the data, not from the text of the source: active = normalized growth mostly below about 0.91 (no sharp cut-off); inconclusive = no clear call, values can overlap the other calls; inactive = mostly above about 0.92. The list shows a part of the results.
Choose one outcome from this list and give only that: 1 (yes) (active), 0 (no) (inactive)

Here are 3 compounds together with their reported answers.
CO[C@@]1(NC(=O)C(C(=O)O)c2ccc(O)cc2)C(=O)N2C(C(=O)O)=C(CSc3nnnn3C)CO[C@@H]21 (some centres undefined)	0 (no)
Cc1[nH]ccc2c1[nH]c1cc(=O)ccc12	0 (no)
CCCCCCCCCCCC1=C(O)C(=O)C=C(O)C1=O	1 (yes)

We now examine a further compound.
Fill in: this test's call for COc1ccc2ccc(=O)oc2c1 is ___
0 (no)

###

test: chemical genetic growth profiling, strain panel (AID 1159580);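 further: tested at 20 µM; growth read once vehicle control cultures reached saturation at 30 °C; 1 = growth at the plate median or of vehicle wells; lower values mean less growth of the strain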; settings: S. cerevisiae deletion strains, growth OD, locus YBR160W, strain CDC28, active compounds read low
Screen size: about 5,500 compounds; about 2,000 (36%) were called active. Not shown: some 18% with an inconclusive outcome. The list shows a part of the results.
Each entry below carries its reported normalized growth.
Give the value as a plain number.

Cc1ccc(C)n1-c1ccc(/C=C2/C(=O)Nc3ccccc32)cc1	0.962
O=C(NNc1ccc(F)cc1F)c1sccc1Cl	0.971
Cc1c(C)c(C)c(C(O)c2ccccc2)c(C)c1C (stereo not given)	1.01

Name the recorded normalized growth for COc1ccc(/C=C2/C(=O)Nc3ccccc32)cc1 .
0.899

Could you do the same for O=C1Nc2ccccc2/C1=C\c1cccc([N+](=O)[O-])c1 , please?
0.979
